# Tested on: rodent carcinogenicity bioassays, tumor incidence
# Protocol Details: CCRIS carcinogenicity studies
# Assay Conditions: Species: MOUSE; Route: ORAL; Tumor Site: Type of Lesion: LIVER
Active and inactive are the calls of the source. How the calls were made is not given here.

# Smiles Notation, carcinogen call
rows = [
    ("Cc1ccc(N=Nc2c(O)c(S(=O)(=O)O)cc3cc(S(=O)(=O)O)ccc23)c(C)c1", "active; positive"),
    ("O=[N+]([O-])c1c(Cl)c(Cl)c(Cl)c(Cl)c1Cl", "active; positive"),
    ("Nc1ccc2ccccc2c1", "active; positive"),
]

---

# System: rodent carcinogenicity bioassays, tumor incidence
# Protocol Details: CCRIS carcinogenicity studies
# Assay Conditions: Species: MOUSE; Strain/Sex: SWISS-WEBSTER/FEMALE; Route: DERMAL; Dose: 0; 1% IN 0.1 ML 0.1% SODIUM LAURYL SULFATE 1/WK FOR 18 MO (STUDY DURATION: 18 MO)
The source made the active and inactive calls. How the calls were made is not given here.

# Smiles Notation, carcinogen call
measured = [
    ("Oc1ccc2ccccc2c1N=Nc1ccc(N=Nc2ccccc2)cc1", "inactive; negative"),
    ("O=C(O)c1cc2ccccc2c(N=Nc2ccc3ccccc3c2S(=O)(=O)O)c1O", "inactive; negative"),
    ("Cc1ccc(Nc2ccc(O)c3c2C(=O)c2ccccc2C3=O)cc1", "inactive; negative"),
    ("O=C1OC2(c3ccc(O)cc3Oc3cc(O)ccc32)c2ccccc21", "inactive; negative"),
]
